targetOfAssay: Alpha-glucosidase (Saccharomyces cerevisiae S288c, UniProt P53341+P38158+P07265)
testSummary: Inhibition of Saccharomyces cerevisiae alpha-glucosidase using pNPG as preincubated for 15 mins followed by substrate addition and measured after 30 mins by spectroscopic analysis
attributeMeasured: IC50 (µM)

[I] COc1cc(O[C@H]2O[C@@H](CO[C@H]3OC[C@@H](O)[C@H](O)[C@H]3O)[C@H](O)[C@H](O)[C@@H]2O)c2c(=O)c3c(O)ccc(OC)c3oc2c1OC
[II] COc1ccc(O)c2c(=O)c3c(O[C@H]4O[C@@H](CO[C@H]5OC[C@@H](O)[C@H](O)[C@H]5O)[C@H](O)[C@H](O)[C@@H]4O)cc(O)c(OC)c3oc12
[Q] Select one: I or II . Criterion: greater recorded IC50. Mark your selection by writing its label.
[A] II
(II: 417 µM, I: 142 µM)
